Test: yeast display, Sf9 membrane polyspecificity reagent, FACS + sequencing; frameworks hold sequencing errors
endpoint-label: polyreactivity (PSR sort gate)

Here's what some known entries look like.
QVQLVESGGGLVQAGGSLRLSCAASGFTFPSYAMGWYRQAPGKERELVAVISWGGTSTYYADSVKGRFTISRDNAKNTVYLQMNSLKPEDTAVYYCATTRRVPGEYWGQGTQVTVSS high polyreactivity
QVQLVESGGGLVQAGGSLRLSCAASGRIWYYAMGWYRQAPGKERELVAAISFSGGTTYYADSVKGRFTISRDNAKNTVYFPMNSLKPEDTGVYYCNKVSVGRYKRDYWGQGTQVTVSS high polyreactivity
QVQLVETGGGLVQAGGSLRLSCAASGSTFDYNAMGWYRQAPGKERELVASITESGDSTYYADSVKGRFTISRDNAKNTVYLQMNSLKPEDTAVYYCAATQVHWVYVVYYEYEYWGQGTQVTVSS low polyreactivity
QVQLVESGGGLVQAGGSLRLSCAASGRIFLDYAMGWYRQAPGKERELVAAINSGGRTNYADSVKGRFTISRDNAKNTVYLQMNSLKPEDTAVYYCAAGYWPRWFWPYEYWGQGTQVTVSS low polyreactivity
QVQLVESGGGLVQAGGSLRLSCAASGRILYVNTMGWYRQAPGKERELVAGITSRVGSTYYADSVKGRFTISRDNAKNTVYLQMNSLKPEDTAVYYCNARDKFYVPSLYAYDYWGQGTQVTVSS low polyreactivity
QVPLVESVGGLVQAGGSLRLSCAASGLTFWRYAMGWYRQAPGKEREFVAAISSGGSTNYADSVKGRFTISRDNAKNTVYLQMNSLKPEDTAVYYCNARYYHKRSTRVIFPYDYWGQGTQVTVSS high polyreactivity
QVQLVESGGGLVQAGASLRLSCAASGSTFGYYAMGWNRQAPGKERELVAAISTRGGSTYYADSVKGRFTISRDNAKTTVYLQMNSLKPEDIAVYYCAVLGTPYGLNDYCGQGTQVTVSS high polyreactivity
QGQLVESGGGLVQAGGSLRLSCAASGSMFYRYAMGWYRQAPGKERELVAVITSAGGTHYADSVKGRFTISRDNAKNTVYLQMTSLKPEDTAVDYCARRGYYYDYWGEGTQVTVSS high polyreactivity
QVQLVESGGGLVQAGGSLSLSCAASGFTFRWYAMGWYRQAPGKERELVAAISSDDDTSYADSVKGRFTISRDNAKNTVYLQMNSLKPEDTAVYDCAADGYYTLDAYPYGIFWYDYWGQGTQVTVSS low polyreactivity
QVQLVESGGGLVQAGGSLRLSCAASGSILGSNVMGWYRQAPGKERELVAAITSGDSTNYADSVKGRFTISRDNAKNTVYLQMNSLKPEDTAVYYCAKPYSVAPAAVLNWYLGYEYWGQGTQVTVSS low polyreactivity

stdin: Find the recorded polyreactivity (PSR sort gate) belonging to "QLQLQESGGGLVQAGGSLRLSCAASGSISRMDYMAWYRQASGKERELVAAIDNGSTTYYADSVKGRLTISRDNAKYTVYLQMNSLKPEDSAVYFCAAVRGRGGTHAYWGQGTQVTVSG" and report it.
stdout: low polyreactivity

stdin: Find the recorded polyreactivity (PSR sort gate) belonging to "QVQLVESGGGLVQAGGSLRLSCAASGRTFFYYAMGWYRPAPGKERELVAGSTNYADSVKGRFTISRDNAKNTVYLQMNSLKPEETAVYYCNADPDDYWGQGTQVTVSS" and report it.
stdout: low polyreactivity

stdin: Find the recorded polyreactivity (PSR sort gate) belonging to "QVQLVESGGGLVQAGGSLRLSCAASGSLFDHYAMGWYRQEPGTERELVARISWSGGSTYYADSVKGRFTISRDNAKNTVYLQMNRLKPEDTAVYYCARAGRSWDTLYKYYLEHDYWGQGTQVTVSS" and report it.
stdout: low polyreactivity

stdin: Find the recorded polyreactivity (PSR sort gate) belonging to "QVQLVESGGGLVQAGGSLRLSCAASGHIFGGNAMGWYRQAPGKEMELVATISSGGSTHYADSVKGRFTISRDNAKNTVYLQMHSLKPEDTAVYYCAARRSYRATAYKYDYWGQGTHVTVSS" and report it.
stdout: low polyreactivity

stdin: Find the recorded polyreactivity (PSR sort gate) belonging to "QVQLVESGGGLVQAGGSLRLSCAASGRNISYNAMGGYRQAPGKERELVAAISWGGGSTYYADSVMGRFTISRDNAKNTVFLHMNSLKQDDTAVYYCAKGWYRIKRNDYWGQGTQVTVSS" and report it.
stdout: low polyreactivity
